- Tested on: DeltatarO mutant
- protocol_details: S. aureus survival, RN4220 and DeltatarO strains – OD600, teichoic acid synthesis inhibitors, primary screen (AID 463173)
- settings: S. aureus RN4220 wild type/DeltatarO growth, OD600, 18 h, stronger effect = lower value, screened at 18.75 µg/mL (by protocol)
In all, about 52,000 compounds went through this assay and about 4,300 (8.3%) were called active. This excerpt belongs to a sample that is enriched for actives.
Decision: survival beneath 60% gives fulfilled; survival meeting or exceeding 60% gives not fulfilled.

| compound | cat |
| --- | --- |
| Cc1ccc(NC(=O)Nc2csc3c2CCCC3)c(C)c1 | not fulfilled |
| COc1ccccc1C(=O)Nc1ccc(NC(=O)c2cccs2)cc1 | fulfilled |
| CCOC(=O)Cn1c(=O)n(CC2CCCO2)c2nc(-c3ccc(C(C)C)cc3)nc(C(N)=O)c21 (stereo not drawn) | fulfilled |
| CCc1cccc(NC(=O)Nc2csc3c2CCCC3)c1 | not fulfilled |
| Cc1cc(NC(=O)Nc2csc3c2CCCC3)ccc1Br | fulfilled |
| O=C(Nc1ccc(F)cc1)Nc1csc2c1CCCC2 | fulfilled |
| CCOC(=O)Cn1c(=O)n(CC2CCCO2)c2nc(-c3ccc(CC)cc3)nc(C(N)=O)c21 (stereo not drawn) | not fulfilled |
| CCCOC(=O)c1ccc(Cn2nnc3sc4c(c3c2=O)CCC(C)C4)cc1 (stereo not drawn) | not fulfilled |

Incoming: Problem: For the compound `Cc1cc2c(cc3c(SCc4ccccc4Cl)nnc(C)n32)o1` , is survival under 60%?
Outgoing: fulfilled

Incoming: Problem: For the compound CC1CCc2c(sc3nnn(Cc4cccc(C(=O)OC(C)C)c4)c(=O)c23)C1 (stereo not drawn) , is survival under 60%?
Outgoing: not fulfilled

Incoming: Problem: For the compound `Cc1ccc2c(c1)c(N1CCCC1=O)c(C(=O)Nc1ccc(F)cc1F)n2C` , is survival under 60%?
Outgoing: not fulfilled

Incoming: Problem: For the compound `Cc1cc2c(cc3c(SCc4cccc(Cl)c4)nnc(C)n32)o1` , is survival under 60%?
Outgoing: fulfilled

Incoming: Problem: For the compound `CC(C)c1ccc(NC(=O)Nc2csc3c2CCCC3)cc1` , is survival under 60%?
Outgoing: fulfilled

Incoming: Problem: For the compound `COc1ccc(-c2oc3ncn4nc(-c5ccccc5Br)nc4c3c2-c2ccc(OC)cc2)cc1` , is survival under 60%?
Outgoing: not fulfilled

Incoming: Problem: For the compound `Clc1ccc(CSc2nncn3c2cc2occc23)cc1` , is survival under 60%?
Outgoing: fulfilled
